system: Carbonic anhydrase 2 (Homo sapiens)
protocol-summary: CAII small-molecule binders, profiling panel, biochemical, small-molecule microarray, Alexa647-labelled CAII (AID 1122)
condition-summary: CAII-A647 binding fluorescence, higher = more signal
quantity-kind: composite z-score
Give the figure by itself; no unit, no explanation.

* CC(c1ccccc1)C(O)C1C=CC2C(=O)NC(=O)C2N1Nc1ccccn1 (centres undefined) | 0.531
* COCCOC(=O)N1C(=O)[C@@]2(c3ccccc31)[C@H](C(=O)NC[C@H](O)c1ccccc1)[C@H]1C(=O)O[C@H](c3ccccc3)[C@H](c3ccccc3)N1[C@@H]2c1ccc(OCCO)cc1 | 0.492
* O=C1[C@]2(CO)C=C(Br)[C@@H](C[C@@H]2c2ccccc2)[C@@]12CO2 | 0.129

Dear colleague, I am looking for the recorded composite z-score of the following compound: COc1ccc([Si](C)(C)[C@@H]2[C@@H](CCn3cc([C@H](O)c4ccccc4)nn3)O[C@]3(C(=O)N(Cc4ccc(N5C(=O)c6cccc7cccc5c67)cc4)c4ccccc43)[C@H]2C)cc1
0.403

Cited source for all entries: PubChem BioAssay
